Please provide measured ELISA fold-improvement over wildtype for the entries that follow.
Biological target: T1, CD154 (human, UniProt P29965 113-261, limits assumed)
T1 construct: also called CD40 ligand; CD40L
T1 sequence (looked up): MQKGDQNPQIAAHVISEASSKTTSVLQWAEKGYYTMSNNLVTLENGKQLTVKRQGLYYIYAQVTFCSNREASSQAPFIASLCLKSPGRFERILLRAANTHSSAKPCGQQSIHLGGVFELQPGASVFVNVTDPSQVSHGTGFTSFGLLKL
Assay: ELISA-based competitive binding assay; unlabeled Fab against biotin-labeled 5c8 Fab competitor
Answers are plain numbers, in fold over wildtype.

// solved cases for ELISA fold-improvement over wildtype follow
binder	recorded result
5c8 Fab Mutant #9 (light chain T33D) (Fab, V domains shown) VH: QVQLVQSGAEVVKPGASVKLSCKASGYIFTSYYMYWVKQAPGQGLEWIGEINPSNGDTNFNEKFKSKATLTVDKSASTAYMELSSLRSEDTAVYYCTRSDGRNDMDSWGQGTLVTVSS VL: DIVLTQSPATLSVSPGERATISCRASQRVSSSDYSYMHWYQQKPGQPPKLLIKYASNLESGVPARFSGSGSGTDFTLTISSVEPEDFATYYCQHSWEIPPTFGGGTKLEIK	0.22
5c8 Fab Mutant #17 (heavy chain Y33W; light chain S26D/Q27E/T33W) (Fab, V domains shown, Fab fragment) VH: QVQLVQSGAEVVKPGASVKLSCKASGYIFTSYWMYWVKQAPGQGLEWIGEINPSNGDTNFNEKFKSKATLTVDKSASTAYMELSSLRSEDTAVYYCTRSDGRNDMDSWGQGTLVTVSS VL: DIVLTQSPATLSVSPGERATISCRADERVSSSWYSYMHWYQQKPGQPPKLLIKYASNLESGVPARFSGSGSGTDFTLTISSVEPEDFATYYCQHSWEIPPTFGGGTKLEIK	5.9
5c8 Fab Mutant #8 (light chain S31V) (Fab, V domains shown) VH: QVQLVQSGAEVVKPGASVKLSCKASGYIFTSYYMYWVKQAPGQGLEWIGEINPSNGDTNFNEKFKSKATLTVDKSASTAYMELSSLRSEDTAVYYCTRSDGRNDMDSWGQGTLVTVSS VL: DIVLTQSPATLSVSPGERATISCRASQRVSVSTYSYMHWYQQKPGQPPKLLIKYASNLESGVPARFSGSGSGTDFTLTISSVEPEDFATYYCQHSWEIPPTFGGGTKLEIK	0.02
5c8 Fab Mutant #6 (light chain S26D) (Fab, V domains shown, Fab fragment) VH: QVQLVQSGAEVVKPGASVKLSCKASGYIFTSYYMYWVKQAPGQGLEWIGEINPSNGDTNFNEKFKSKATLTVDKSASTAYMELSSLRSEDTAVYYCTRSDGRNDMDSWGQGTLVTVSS VL: DIVLTQSPATLSVSPGERATISCRADQRVSSSTYSYMHWYQQKPGQPPKLLIKYASNLESGVPARFSGSGSGTDFTLTISSVEPEDFATYYCQHSWEIPPTFGGGTKLEIK	2.6

Kindly consider the entry below.
Input 5c8 Fab Mutant #15 (light chain S26D/Q27E/T33W) (Fab, V domains shown, Fab fragment) VH: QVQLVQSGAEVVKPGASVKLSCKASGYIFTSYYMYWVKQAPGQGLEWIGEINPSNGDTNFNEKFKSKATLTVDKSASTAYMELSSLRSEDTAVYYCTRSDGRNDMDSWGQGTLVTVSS VL: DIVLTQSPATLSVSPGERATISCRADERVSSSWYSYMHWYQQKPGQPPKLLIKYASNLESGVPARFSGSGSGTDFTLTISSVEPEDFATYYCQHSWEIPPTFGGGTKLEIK . Output ELISA fold-improvement over wildtype: 3.8

# credit: patent US20140220031A1
